measured on: T1, human IL-18Rα (IL-18R1) on human cells (KG-1 cells, PBMC, TH1-cultured T cells, whole blood) (human, UniProt Q13478 19-541)
T1 sequence: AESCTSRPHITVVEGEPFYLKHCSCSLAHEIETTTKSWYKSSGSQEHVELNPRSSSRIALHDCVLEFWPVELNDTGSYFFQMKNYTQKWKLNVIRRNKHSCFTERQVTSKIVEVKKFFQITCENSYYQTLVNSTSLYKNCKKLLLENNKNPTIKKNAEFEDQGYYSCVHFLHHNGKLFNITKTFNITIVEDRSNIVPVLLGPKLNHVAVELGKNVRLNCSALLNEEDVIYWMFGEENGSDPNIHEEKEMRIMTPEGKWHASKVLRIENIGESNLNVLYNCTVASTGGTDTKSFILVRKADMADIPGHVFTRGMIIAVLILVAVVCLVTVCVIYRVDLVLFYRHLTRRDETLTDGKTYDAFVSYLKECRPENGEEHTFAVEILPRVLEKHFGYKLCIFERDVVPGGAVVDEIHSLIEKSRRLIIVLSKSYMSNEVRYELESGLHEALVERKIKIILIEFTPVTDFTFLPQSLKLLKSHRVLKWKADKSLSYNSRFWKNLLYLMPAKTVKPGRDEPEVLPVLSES
assay text: cell-based or functional assay
Catalogue of binders with associated human TH1-assay (IFN-γ after IL-18/IL-12 restimulation), IC90 [pM]
All answers are understood in pM, so give the number only.

// solved cases for human TH1-assay (IFN-γ after IL-18/IL-12 restimulation), IC90 [pM] follow
humanized Mab1G12-11.6 (antibody, V domains shown) VH: QVQLVQSGAEVKKPGASVKVSCKASGYTFTSNWMHWVRQAPGQGLEWMGTIDPSDSYTYYAQKFQGRVTMTRDTSISTAYMELSRLRSDDTAVYYCTTSGDYDADRYFDVWGQGTTVTVSS VL: EIVLTQSPGTLSLSPGERATLSCRASKSVSTSGDSYMHWYQQKPGQAPRLLIYLASNLETGIPDRFSGSGSGTDFTLTISRLEPEDFAVYYCQQSRELPLSFGQGTKLEIK = 77
humanized Mab1G12-9.6 (antibody, V domains shown) VH: QVQLVQSGAEVKKPGASVKVSCKASDYTFTSNWMHWVRQAPGQGLEWMGTIDPSDSYTYYNQKFQGRVTMTRDTSTSTVYMELSSLRSEDTAVYYCTTSGDYDADRYFDVWGQGTTVTVSS VL: EIVLTQSPGTLSLSPGERATLSCRASKSVSTSGDSYMHWYQQKPGQAPRLLIYLASNLETGIPDRFSGSGSGTDFTLTISRLEPEDFAVYYCQQSRELPLSFGQGTKLEIK = 148

[ask] Fill blank: measured human TH1-assay (IFN-γ after IL-18/IL-12 restimulation), IC90 [pM] of the binder humanized Mab1G12-10.5 (antibody, V domains shown) VH: QVQLVQSGAEVKKPGASVKVSCKASDYTFTSNWMHWVRQAPGQGLEWMGTIDPSDSYTYYNQKFQGRATMTVDTSTSTVYMELSSLRSEDTAVYYCTTSGDYDADRYFDVWGQGTTVTVSS VL: DIQMTQSPSSLSASVGDRVTITCQASKSVSTSGDSYMHWYQQKPGKAPKLLIYLASNLETGVPSRFSGSGSGTDFTFTISSLQPEDIATYYCQQSRELPLSFGQGTKLEIK is ____.
[reply] 283
